Molecular target: SARS-CoV-2 3CL^pro (Severe acute respiratory syndrome coronavirus 2 (2019-nCoV) (SARS-CoV-2), UniProt P0DTD1)
Experiment: biochemical
Conditions: FRET, class symbols; read-out: IC50 (nM), inhibitory activity against 3CL^pro
Parameter: IC50. Scope: all listed entries.

Smiles Data | Result Type | Result
Cn1cc2cc(/N=c3\[nH]c(=O)n(Cc4nnnn4C4CC4)c(=O)n3Cc3cc(F)c(F)cc3F)c(Cl)cc2n1 | IC50 | 200 to 500 nM
Cn1cc2cc(/N=c3\[nH]c(=O)n(Cc4nnn[nH]4)c(=O)n3Cc3ccc([N+](=O)[O-])cc3)c(Cl)cc2n1 | IC50 | > 1000 nM
CCn1nnnc1Cn1c(=O)[nH]/c(=N\c2cc3cn(C)nc3cc2Cl)n(Cc2cc(F)c(F)cc2F)c1=O | IC50 | < 200 nM

Please look at the following molecule next.
Quick check: IC50 of `CC(C)Cn1nnnc1Cn1c(=O)[nH]/c(=N\c2cc3cn(C)nc3cc2Cl)n(Cc2cc(F)c(F)cc2F)c1=O` ?
> 1000 nM
